Target: HDM2 (truncated, residues 17 to 125, containing p53 binding surface) (Homo sapiens (Human))
Sequence (Q00987 17-125): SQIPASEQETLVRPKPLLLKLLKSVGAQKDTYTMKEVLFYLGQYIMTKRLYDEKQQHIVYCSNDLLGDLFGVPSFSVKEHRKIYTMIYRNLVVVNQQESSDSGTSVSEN
Experiment: HDM2 FRET assay (inhibition of binding of FITC labeled p53-site peptide to HDM2)
Conditions: Table 23
recorded-endpoint: IC50 (nM)
Report the figure in nM without appending any unit label.

// known answers, use as guide
CC1COCCC1(F)c1nc2nc(-c3noc(=O)[nH]3)nc(-c3cncc(Cl)c3)c2n1C[C@H]1CC[C@H](C)CC1 (single isomer, unassigned) [Example 23.94]    23.4
COC(C)(c1c(F)cccc1F)c1nc2nc(-c3noc(=O)[nH]3)nc(-c3cncc(Cl)c3)c2n1C[C@H]1CC[C@H](C)CC1 (single isomer, unassigned)    0.452
COc1ccccc1C(C)(F)c1nc2nc(-c3noc(=O)[nH]3)nc(-c3cncc(Cl)c3)c2n1C[C@H]1CC[C@H](C)CC1 (single isomer, unassigned) [Example 23.27]    1.62
CC1CCCCC1(F)c1nc2nc(-c3n[nH]c(=O)o3)nc(-c3cncc(Cl)c3)c2n1C[C@H]1CC[C@H](C)CC1 (single isomer, unassigned) [Example 23.82]    7.63

Consider the record given below.
Query string: Find the measured IC50 of C[C@H]1CC[C@H](Cn2c(C(O)C3CCCCC3)nc3nc(-c4n[nH]c(=O)o4)nc(-c4cccc(Cl)c4)c32)CC1 (mixture of isomers) and report it.
Result string: 20.2
